# Lookup of reported Kd keyed by entry
- System name: T1, TGFβ1 (R&D Systems)
- T1 construct: also called TGFB1
- T1 sequence (P01137 279-390): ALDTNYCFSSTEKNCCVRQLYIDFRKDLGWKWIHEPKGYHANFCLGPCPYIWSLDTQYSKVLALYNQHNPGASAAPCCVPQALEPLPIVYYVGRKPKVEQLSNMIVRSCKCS
- Test details: single point SPR
Write the number in nM without appending the unit.

Binder	Unit abbrev	Kd
Can-SL501-VH3 Y111H / Can-SL501-VL2 (antibody, V domains shown) VH: EVQLVESGGDLVKPGGSLRLSCVASGFTFSSYGMHWVRQAPGKELEWVAVISYDGSIKYYADAVKGRFTISRDNAKNTLYLQMNSLRAEDTAVYYCARTGEYSGYDTDPQHSWGQGTTVTVSS VL: EIVMTQSPGSLAGSAGESVSINCRASQGIGDDLGWYQQKPGERPKLLIYGTSTLQSGVPARFSSSGSGTDFTLTINNLQAEDVGDYYCLQDSNYPLTFGAGTK	nM	4.5

Q: Quote Kd reported for Can-SL501-VH3 P109W / Can-SL501-VL2 (antibody, V domains shown) VH: EVQLVESGGDLVKPGGSLRLSCVASGFTFSSYGMHWVRQAPGKELEWVAVISYDGSIKYYADAVKGRFTISRDNAKNTLYLQMNSLRAEDTAVYYCARTGEYSGYDTDWQYSWGQGTTVTVSS VL: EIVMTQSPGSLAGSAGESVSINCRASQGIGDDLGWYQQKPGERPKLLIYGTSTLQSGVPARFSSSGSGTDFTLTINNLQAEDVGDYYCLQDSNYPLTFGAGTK please.
Ans: 6.9

Q: Quote Kd reported for Can-SL501-VH3 Q110R / Can-SL501-VL2 (antibody, V domains shown) VH: EVQLVESGGDLVKPGGSLRLSCVASGFTFSSYGMHWVRQAPGKELEWVAVISYDGSIKYYADAVKGRFTISRDNAKNTLYLQMNSLRAEDTAVYYCARTGEYSGYDTDPRYSWGQGTTVTVSS VL: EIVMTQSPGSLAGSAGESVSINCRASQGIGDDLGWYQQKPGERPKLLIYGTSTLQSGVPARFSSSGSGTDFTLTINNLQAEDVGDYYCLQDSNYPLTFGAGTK please.
Ans: 8.38

Q: Quote Kd reported for Can-SL501-VH3 S112G / Can-SL501-VL2 (antibody, V domains shown) VH: EVQLVESGGDLVKPGGSLRLSCVASGFTFSSYGMHWVRQAPGKELEWVAVISYDGSIKYYADAVKGRFTISRDNAKNTLYLQMNSLRAEDTAVYYCARTGEYSGYDTDPQYGWGQGTTVTVSS VL: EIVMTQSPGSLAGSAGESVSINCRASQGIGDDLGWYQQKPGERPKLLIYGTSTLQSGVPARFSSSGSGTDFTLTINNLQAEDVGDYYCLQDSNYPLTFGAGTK please.
Ans: 0.762

Q: Quote Kd reported for Can-SL501-VH3 Y111E / Can-SL501-VL2 (antibody, V domains shown) VH: EVQLVESGGDLVKPGGSLRLSCVASGFTFSSYGMHWVRQAPGKELEWVAVISYDGSIKYYADAVKGRFTISRDNAKNTLYLQMNSLRAEDTAVYYCARTGEYSGYDTDPQESWGQGTTVTVSS VL: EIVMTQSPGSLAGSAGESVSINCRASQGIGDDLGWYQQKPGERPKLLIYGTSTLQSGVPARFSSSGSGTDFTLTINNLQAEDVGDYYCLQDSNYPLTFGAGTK please.
Ans: 4.98
